Test system: NCIH1568.1
Protocol Description: Payload cellular potency CTGlo-ATS 72 h, NCIH1568.1
Type: cell-based
Applied Conditions: read-out: CTGlo-ATS GMean GI50 (nM) 72 h NCIH1568.1; cell line #2, 72 h; corresponding free payload
Value Type: GI50 (nM)
State the answer as a number, implicitly in nM.

CC[C@H](O)[C@@H](C)[C@H]1O[C@@H]1C[C@@](C)(O)/C=C/C=C(\C)[C@H]1OC(=O)C[C@H](O)CC[C@@](C)(O)[C@@H](OC(=O)N2CCNCC2)/C=C/[C@@H]1C :: 164
CC[C@H](O)[C@@H](C)[C@H]1O[C@@H]1C[C@@](C)(O)/C=C/C=C(\C)[C@H]1OC(=O)C[C@H](O)CC[C@@](C)(OC(=O)N2CCNCC2)[C@@H](OC(C)=O)/C=C/[C@@H]1C :: 6.57
CC[C@H](O)[C@@H](C)C1OC1C[C@@](C)(O)/C=C/C=C(\C)[C@H]1OC(=O)C[C@H](O)CC[C@@](C)(OC)[C@@H](OC(=O)N2CCNCC2)/C=C/[C@@H]1C (stereo in doubt) [D1] :: 7.36

Let us examine a further case.
Enquiry: Using the record for CC[C@H](O)[C@@H](C)C1OC1C[C@@](C)(O)/C=C/C=C(\C)[C@H]1OC(=O)C[C@H](O)CC[C@@](C)(OC(C)=O)[C@@H](OC(=O)N2CCNCC2)/C=C/[C@@H]1C (stereo in doubt) , report its GI50.
Return: 6.37

---

Protocol Description: Caco-2 permeability of ADC payload
Format: in vitro ADME
Applied Conditions: human; Caco-2 efflux ratio; corresponding free payload; read-out: ER
Value Type: efflux ratio at 2 h, 10 NM

Enquiry: Using the record for CC[C@H](O)[C@@H](C)[C@H]1O[C@@H]1C[C@@](C)(O)/C=C/C=C(\C)[C@H]1OC(=O)C[C@H](O)CC[C@@](C)(O)[C@@H](OC(=O)N2CCNCC2)/C=C/[C@@H]1C , report its efflux ratio at 2 h, 10 NM.
Return: 1.35

---

Test system: PC3 cells
Protocol Description: Cell viability CellTiter-Glo, PC3 (EPHA2-expressing)
Assay type: cell-based
Applied Conditions: free payload of the ADC
Value Type: Payload Rmin (%)

Below, each entry is followed by its recorded Payload Rmin (%) result.
CC(=O)N1CCC(n2nnc3c(F)cc(/C=C(\C)[C@H]4OC(=O)C[C@H](O)CC[C@H](C)[C@@H](OC(=O)N5CCNCC5)/C=C/[C@@H]4C)cc32)CC1 [D14] :: −79.835%
CC[C@H](O)[C@@H](C)[C@H]1O[C@@H]1C[C@@](C)(O)/C=C/C=C(\C)[C@H]1OC(=O)C[C@H](O)CC[C@@](C)(OC(=O)N2CCNCC2)[C@@H](OC(C)=O)/C=C/[C@@H]1C [D8] :: −68.37%
CC[C@H](O)[C@@H](C)[C@H]1O[C@@H]1C[C@@](C)(O)/C=C/C=C(\C)[C@H]1OC(=O)C[C@H](O)CC[C@@](C)(OC)[C@@H](OC(=O)N2CCN(C)CC2)/C=C/[C@@H]1C [D2] :: −68.803%
CC[C@H](O)[C@@H](C)[C@H]1O[C@@H]1C[C@@](C)(O)/C=C/C=C(\C)[C@H]1OC(=O)C[C@H](O)CC[C@@](C)(OC)[C@@H](OC(=O)N2CCN(CCCC(=O)O)CC2)/C=C/[C@@H]1C [D25] :: 77.524%
CC[C@H](O)[C@@H](C)[C@H]1O[C@@H]1C[C@H](C)/C=C/C=C(\C)[C@H]1OC(=O)C[C@H](O)CC[C@@](C)(OC)[C@@H](OC(=O)N2CCN(C)CC2)/C=C/[C@@H]1C [D19] :: −29.33%
CC(=O)N1CCC(n2nnc3c(F)cc(/C=C(\C)[C@H]4OC(=O)C[C@H](O)CC[C@H](C)[C@@H](OC(=O)N5CCN(C)CC5)/C=C/[C@@H]4C)cc32)CC1 [D15] :: −79.835%

Enquiry: Using the record for CC[C@H](O)[C@@H](C)C1OC1C[C@@](C)(O)/C=C/C=C(\C)[C@H]1OC(=O)C[C@H](O)CC[C@@](C)(OC(C)=O)[C@@H](OC(=O)N2CCNCC2)/C=C/[C@@H]1C (stereo in doubt) [D4] , report its Payload Rmin (%).
Return: −55.97%

Enquiry: Using the record for CC[C@H](O)[C@@H](C)C1OC1C[C@@](C)(O)/C=C/C=C(\C)[C@H]1OC(=O)C[C@H](O)CC[C@@](C)(OC)[C@@H](OC(=O)N2CCNCC2)/C=C/[C@@H]1C (stereo in doubt) [D1] , report its Payload Rmin (%).
Return: −71.987%

---

System: N87 cells
Protocol Description: Cell viability CellTiter-Glo, N87
Assay type: cell-based, human
Applied Conditions: Homo sapiens, unconjugated payload of the ADC
Value Type: log10 of GI50 (log10 of the value in nM)
Log10 applied to GI50; unit prior to transform: nM.

Below, each entry is followed by its recorded log10 of GI50 result.
CC[C@H](O)[C@@H](C)[C@H]1O[C@@H]1C[C@H](C)/C=C/C=C(\C)[C@H]1OC(=O)C[C@H](O)CC[C@@](C)(OC)[C@@H](OC(=O)N2CCNCC2)/C=C/[C@@H]1C :: -0.56
CC(=O)N1CCC(n2nnc3c(F)cc(/C=C(\C)[C@H]4OC(=O)C[C@H](O)CC[C@H](C)[C@@H](OC(=O)N5CCN(C)CC5)/C=C/[C@@H]4C)cc32)CC1 :: -0.39
CC[C@H](O)[C@@H](C)C1OC1C[C@@](C)(O)/C=C/C=C(\C)[C@H]1OC(=O)C[C@H](O)CC[C@@](C)(OC(C)=O)[C@@H](OC(=O)N2CCNCC2)/C=C/[C@@H]1C (stereo in doubt) :: 0.51
CC(=O)N1CCC(n2nnc3c(F)cc(/C=C(\C)[C@H]4OC(=O)C[C@H](O)CC[C@H](C)[C@@H](OC(=O)N5CCNCC5)/C=C/[C@@H]4C)cc32)CC1 :: 0.47
CC[C@H](O)[C@@H](C)C1OC1C[C@@](C)(O)/C=C/C=C(\C)[C@H]1OC(=O)C[C@H](O)CC[C@@](C)(OC)[C@@H](OC(=O)N2CCNCC2)/C=C/[C@@H]1C (stereo in doubt) [D1] :: 0.85
CC[C@H](O)[C@@H](C)[C@H]1O[C@@H]1C[C@@](C)(O)/C=C/C=C(\C)[C@H]1OC(=O)C[C@H](O)CC[C@@](C)(OC(=O)N2CCNCC2)[C@@H](OC(C)=O)/C=C/[C@@H]1C :: 0.95

Enquiry: Using the record for CC[C@H](O)[C@@H](C)[C@H]1O[C@@H]1C[C@@](C)(O)/C=C/C=C(\C)[C@H]1OC(=O)C[C@H](O)CC[C@@](C)(OC)[C@@H](OC(=O)N2CCN(C)CC2)/C=C/[C@@H]1C [D2] , report its log10 of GI50.
Return: -0.13

---

Protocol Description: Caco-2 permeability of ADC payload
Format: in vitro ADME
Applied Conditions: human, Caco-2, unconjugated payload; apical to basolateral, 2 hours; read-out: Permeability Mean Caco-2 A-B Perm (10e−6 cm/s)
Reported Papp A→B at 2 h, 10 NM values for a set of molecules
State the answer as a number, implicitly in ×10⁻⁶ cm/s.

Below, each entry is followed by its recorded Papp A→B at 2 h, 10 NM result.
CC[C@H](O)[C@@H](C)[C@H]1O[C@@H]1C[C@@](C)(O)/C=C/C=C(\C)[C@H]1OC(=O)C[C@H](O)CC[C@@](C)(OC)[C@@H](OC(=O)N2CCN(C)CC2)/C=C/[C@@H]1C [D2] :: 0.624
C/C(=C\c1cc(F)cc(N2CCN(C(=O)Cn3cccn3)CC2)c1)[C@H]1OC(=O)C[C@H](O)CC[C@H](C)[C@@H](OC(=O)N2CCNCC2)/C=C/[C@@H]1C :: 0.72
CC[C@H](O)[C@@H](C)[C@H]1O[C@@H]1C[C@@](C)(O)/C=C/C=C(\C)[C@H]1OC(=O)C[C@H](O)CC[C@@](C)(OC)[C@@H](OC(=O)N2CCN(CCCC(=O)O)CC2)/C=C/[C@@H]1C :: 0.137
CC[C@H](O)[C@@H](C)C1OC1C[C@@](C)(O)/C=C/C=C(\C)[C@H]1OC(=O)C[C@H](O)CC[C@@](C)(OC(C)=O)[C@@H](OC(=O)N2CCNCC2)/C=C/[C@@H]1C (stereo in doubt) :: 0.1

Let us examine a further case.
Enquiry: Using the record for C/C(=C\c1cc(F)cc(N2CCN(C(=O)Cn3cccn3)CC2)c1)[C@H]1OC(=O)C[C@H](O)CC[C@H](C)[C@@H](OC(=O)N2CCN(C)CC2)/C=C/[C@@H]1C , report its Papp A→B at 2 h, 10 NM.
Return: 16
